Test system: Enterococcus faecium
Test: Antibacterial activity against vancomycin, teicoplanin and erythromycin resistant Enterococcus faecium 02D31P2 strain
Type: functional
PROPERTY LABEL: MIC (µg/mL)
All answers are understood in µg/mL, so give the number only.

Ask: I have this molecule here, COC1[C@@H](OC(N)=O)[C@@H](O)[C@H](Oc2ccc3c(O)c(NC(=O)c4ccc(O)c(CC=C(C)C)c4)c(=O)oc3c2C)OC1(C)C (single isomer, unassigned) , and I need its recorded MIC.
Result: 0.3

Ask: I have this molecule here, `CCOC(=O)/C(=N\OC)c1c(O)oc2c(C)c(O[C@@H]3OC(C)(C)[C@H](OC)[C@@H](OC(=O)c4ccc(C)[nH]4)[C@H]3O)ccc2c1=O` , and I need its recorded MIC.
Result: 5

Ask: I have this molecule here, `CCOC(=O)c1c(O)oc2c(C)c(O[C@@H]3OC(C)(C)[C@H](OC)[C@@H](OC(=O)c4ccc(C)[nH]4)[C@H]3O)ccc2c1=O` , and I need its recorded MIC.
Result: 5

----------
List of MIC values.
System: Streptococcus pyogenes
Assay: Antibacterial activity against Streptococcus pyogenes 02A1UC1 strain
Format: functional
All answers are understood in µg/mL, so give the number only.

Ask: I have this compound here, `CO[C@@H]1[C@@H](OC(=O)c2ccc(C)[nH]2)[C@@H](O)[C@H](Oc2ccc3c(O)c(C(=O)CSC)c(=O)oc3c2C)OC1(C)C` , and I need its recorded MIC.
Result: 0.3

Ask: I have this compound here, `CO[C@@H]1[C@@H](OC(=O)c2ccc(C)[nH]2)[C@@H](O)[C@H](Oc2ccc3c(O)c(C(=O)NCCO)c(=O)oc3c2C)OC1(C)C` , and I need its recorded MIC.
Result: 0.15

Ask: I have this compound here, `CO[C@@H]1[C@@H](OC(=O)c2ccc(C)[nH]2)[C@@H](O)[C@H](Oc2ccc3c(O)c(/C(C)=N/OCCN4CCOCC4)c(=O)oc3c2C)OC1(C)C` , and I need its recorded MIC.
Result: 1.2

Ask: I have this compound here, `CO[C@@H]1[C@@H](OC(=O)c2ccc(C)[nH]2)[C@@H](O)[C@H](Oc2ccc3c(O)c(/C(C)=N/OCCSc4ncc[nH]4)c(=O)oc3c2C)OC1(C)C` , and I need its recorded MIC.
Result: 0.3

Ask: I have this compound here, `CO[C@@H]1[C@@H](OC(=O)c2ccc(C)[nH]2)[C@@H](O)[C@H](Oc2ccc3c(O)c(C(=O)Nc4ccccc4)c(=O)oc3c2C)OC1(C)C` , and I need its recorded MIC.
Result: 0.6

Next:
Ask: I have this compound here, `CO[C@@H]1[C@@H](OC(=O)c2ccc(C)[nH]2)[C@@H](O)[C@H](Oc2ccc3c(O)c(C(C)=O)c(=O)oc3c2C)OC1(C)C` , and I need its recorded MIC.
Result: 0.15

----------
List of MIC values.
Test system: Staphylococcus aureus
Experiment: Antibacterial activity against Staphylococcus aureus novobiocin resistant strain 011HT1
Assay type: functional
All answers are understood in µg/mL, so give the number only.

A selection of reference data follows.
Ask: I have this molecule here, `CCOC(=O)/C(=N\OC)c1c(O)oc2c(C)c(O[C@@H]3OC(C)(C)[C@H](OC)[C@@H](OC(=O)c4ccc(C)[nH]4)[C@H]3O)ccc2c1=O` , and I need its recorded MIC.
Result: 10

Ask: I have this molecule here, `CO[C@@H]1[C@@H](OC(=O)c2ccc(C)[nH]2)[C@@H](O)[C@H](Oc2ccc3c(O)c(/C(C)=N/OCCSc4ncc[nH]4)c(=O)oc3c2C)OC1(C)C` , and I need its recorded MIC.
Result: 40

Now look at this one.
Ask: I have this molecule here, `CO[C@@H]1[C@@H](OC(=O)c2ccc(C)[nH]2)[C@@H](O)[C@H](Oc2ccc3c(O)c(C(=O)NCCO)c(=O)oc3c2C)OC1(C)C` , and I need its recorded MIC.
Result: 2.5
